// values below are reported folding stability dG
B1: EHEE_rd4_0726 (parent)
chain: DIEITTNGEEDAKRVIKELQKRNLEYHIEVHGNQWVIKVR

- Variants of: B1
- measurement description: folding stability dG (cDNA display proteolysis); higher = more stable
- assay context: PBS, room temperature
Report as a plain number; the unit kcal/mol is understood.

Solved entries:
R22Q: 2.45
I4P: 0.107
N23M: 2.13
G32V: 1.08
R22S: 1.76

## Input Provide one value: measured folding stability dG of E25M
## Output 2.52

## Input Provide one value: measured folding stability dG of I2G
## Output 1.4

## Input Provide one value: measured folding stability dG of V30Q
## Output 2.14

## Input Provide one value: measured folding stability dG of N23K
## Output 2.42

## Input Provide one value: measured folding stability dG of L24H
## Output 1.13
